# test: Inhibition of cynomolgus monkey 11beta-HSD1 mediated conversion of prednisone to prednisolone
# Parameters: species or system Macaca fascicularis
value kind: Ki
Express the reported value numerically, then name its unit.

Provide one value: measured Ki of N#Cc1ccc(-c2ccc(S(=O)(=O)Nc3cccc(N)n3)cc2)cc1
2.3 nM
